experiment: in vitro; details: mouse, plasma
property.measured: fraction unbound

# input Request the reported fraction unbound associated with "Cc1c([C@@H](NC(=O)Nc2cnc(N)nc2)C(F)(F)F)oc2c(F)cc(F)cc12"
# output 0.033

###

system: pAKT (S473) in EFM19 cells; assay: pAKT (S473) HTRF; assay type: cell-based; settings: Homo sapiens, EFM-19; EFM19, H1047L; 1 hour; read-out: pAKT HTRF GMean IC50 (95% CI)
property.measured: pIC50
# log scale: pIC50 equals minus log10 of the concentration in mol/L

# input Request the reported pIC50 associated with "Cc1nc(NC(=O)N2CCC[C@H]2C(N)=O)sc1-c1ccnc(C(C)(C)C(F)(F)F)c1"
# output 7.37

###

molecular target: AurB kinase (Homo sapiens, UniProt Q96GD4)
Sequence (Q96GD4 whole entry): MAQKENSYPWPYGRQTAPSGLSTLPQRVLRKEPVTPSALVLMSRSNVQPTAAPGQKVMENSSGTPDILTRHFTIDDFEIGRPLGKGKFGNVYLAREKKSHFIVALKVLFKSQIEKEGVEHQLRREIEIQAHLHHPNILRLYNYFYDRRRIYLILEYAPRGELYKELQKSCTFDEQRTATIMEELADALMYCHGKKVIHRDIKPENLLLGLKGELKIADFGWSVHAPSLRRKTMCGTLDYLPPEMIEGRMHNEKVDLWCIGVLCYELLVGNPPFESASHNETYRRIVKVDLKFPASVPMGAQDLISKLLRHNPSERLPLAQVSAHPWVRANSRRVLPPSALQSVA
property.measured: IC50 (nM)
API: value field is a number in nM; no unit string.

# input Value wanted: IC50 (AurB kinase (Homo sapiens, UniProt Q96GD4)) of entry "Cc1c([C@@H](NC(=O)Nc2cnc(N)nc2)C(F)(F)F)oc2c(F)cc(F)cc12"
# output 1660

###

assay: Plasma exposure in mice; format: in vivo, mouse; conditions: mouse, plasma, oral; mice, 50 mg/kg q.d.
property.measured: AUC

# input Request the reported AUC associated with "Cc1nc(NC(=O)N2CCC[C@H]2C(N)=O)sc1-c1ccnc(C(C)(C)C(F)(F)F)c1"
# output ~75000 ng·h/mL

###

experiment: in vitro; conditions: bovine
property.measured: fraction unbound
// response body must contain only the number

# input Request the reported fraction unbound associated with "Cc1c([C@@H](NC(=O)Nc2cnc(N)nc2)C(F)(F)F)oc2c(F)cc(F)cc12"
# output 0.26
